molecular target: human CYP2C19 (Homo sapiens); assay: biochemical; conditions: CYP2C19 IC50 (half-maximal inhibitory concentration)
Sequence (P33261 whole entry): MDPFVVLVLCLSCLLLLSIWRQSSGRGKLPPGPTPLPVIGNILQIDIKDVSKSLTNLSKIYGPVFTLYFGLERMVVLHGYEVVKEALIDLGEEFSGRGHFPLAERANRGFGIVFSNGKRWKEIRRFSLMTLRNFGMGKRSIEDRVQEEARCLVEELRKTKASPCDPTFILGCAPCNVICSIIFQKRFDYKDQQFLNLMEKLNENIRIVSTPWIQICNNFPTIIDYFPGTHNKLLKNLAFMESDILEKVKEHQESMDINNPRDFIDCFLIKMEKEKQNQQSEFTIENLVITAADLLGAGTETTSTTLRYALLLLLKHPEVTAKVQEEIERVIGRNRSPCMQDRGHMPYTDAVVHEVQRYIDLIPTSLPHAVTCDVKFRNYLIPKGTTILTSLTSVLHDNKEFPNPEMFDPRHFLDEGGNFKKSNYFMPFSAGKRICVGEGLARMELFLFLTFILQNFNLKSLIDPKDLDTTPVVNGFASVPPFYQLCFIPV
Checkbox rule: IC50 lower than 10 µM = True; IC50 not lower than 10 µM = False.

Input O[Si](c1ccccc1)(c1ccccc1)c1ccccc1 ; condition: IC50 strictly below 10 µM. Does it hold?
True

Input c1ccc2c(c1)-c1ccc3ccc4cccc5cc-2c1c3c45 ; condition: IC50 strictly below 10 µM. Does it hold?
False

Input Clc1ccc(C(c2ccc(Cl)cc2)C(Cl)(Cl)Cl)cc1 ; condition: IC50 strictly below 10 µM. Does it hold?
True

Input CCOC(=O)C(O)(c1ccc(Cl)cc1)c1ccc(Cl)cc1 [Chlorobenzilate] ; condition: IC50 strictly below 10 µM. Does it hold?
True

Input COP(=S)(OC)SCN1C(=O)c2ccccc2C1=O ; condition: IC50 strictly below 10 µM. Does it hold?
True

Input O=C(OCC1(COC(=O)c2cccnc2)CCCC(COC(=O)c2cccnc2)(COC(=O)c2cccnc2)C1O)c1cccnc1 ; condition: IC50 strictly below 10 µM. Does it hold?
False

Input COP(=S)(OC)Oc1ccc([N+](=O)[O-])c(C)c1 ; condition: IC50 strictly below 10 µM. Does it hold?
True

Input CCCCN(CCCC)CCCOC(=O)c1ccc(N)cc1 ; condition: IC50 strictly below 10 µM. Does it hold?
False

Input COc1c2ccoc2cc2oc(=O)ccc12 ; condition: IC50 strictly below 10 µM. Does it hold?
False

Input CC(CCc1ccccc1)NC(C)C(O)c1ccc(O)cc1 (stereo not shown) ; condition: IC50 strictly below 10 µM. Does it hold?
True
